Taken from paper PMC8143291.

MIC: recorded values
# Test system: S. Aureus ATCC 29213
# assay.name: Broth microdilution MIC/MBC
# Type: cell-based, Staphylococcus aureus
# particulars: 24 h exposure; v/v; n = 3
State just the number; it will be interpreted in %.

1. C[S+](C)[O-] [DMSO, dimethyl sulfoxide] ... 25
2. COCCO [MEtOH, 2-methoxyethanol] ... 25

Let us move to another entry and its MIC.
The compound listed as COCCOC [DME, 1,2-dimethoxyethane] has a reported MIC of 6.25

###

# Test system: Y. enterocolitica IP 864 O: 3
# assay.name: Broth microdilution MIC/MBC
# Format: cell-based, Yersinia enterocolitica
# particulars: 24 h exposure; v/v; n = 3
Measured MIC, listed per entry for reference.

Some solved entries appear below for comparison.
1. CCO ... >25%
2. CO ... >25%
3. COCCOC ... 3.125%
4. C[S+](C)[O-] [DMSO, dimethyl sulfoxide] ... 3.125%

Entry under test: COCCO . Its MIC was 12.5%
